- System: DU-145 prostate
- assay_protocol: NCI tumour cell line growth inhibition, 48 h
readout_kind: TGI (µM)
Could you give me the number in µM? Just the number is fine.

compound="COc1ccc(C2C(C#N)=C(N)Oc3c2sc2c(F)cccc32)cc1 (stereo unspecified)" reported=11.4
compound=COc1ccc(C2=C(Cl)C(=O)N(c3ccc(OC)cc3OC)C(=O)C2(Cl)Cl)cc1 reported=31
compound=N=C1N(/N=C/c2ccccn2)C(=Nc2ccccc2)C(=S)N1c1ccccc1 reported=13.4
compound=CCN1C(C)(C)CC(Oc2ccc(C(=O)Nc3ccc(NC(=O)Nc4cc(C(C)(C)C)on4)cc3)nc2)CC1(C)C reported=3.72
compound=Cc1ncc(C(=O)Nc2ccc(CN3CCN(C)CC3)c(C(F)(F)F)c2)cc1C#Cc1c(N)ncc2ccc(F)cc12 reported=1.39

Prompt: Could you tell me which TGI is on file for COc1ccc(-c2nc(N)n(C)c2SSc2c(-c3ccc(OC)cc3)nc(N)n2C)cc1 ?
Response: 31.4

Prompt: Requested field: TGI. Item: O=C(OCc1nc2nc(Cl)nc(N3CCOCC3)c2[nH]1)n1ccnc1
Response: 3.18

Prompt: Please report the recorded TGI for CCC(=O)c1c(C(F)(F)F)n([O-])c2cc(N3CCNCC3)c(F)cc2[n+]1=O .
Response: 4.36

Prompt: Data request, read-out TGI, for COc1cc(-c2cc(/C=C3\C(=O)Nc4cc(Cl)ccc43)[nH]n2)cc(OC)c1OC
Response: 14.5

Prompt: So what's the measured TGI for this one? CC(C)(C)OC(=O)N1CC(O)O[C@H](c2ccccc2)[C@@H]1c1ccccc1 (stereo partly specified)
Response: 53.8

The origin of these recorded values is PubChem BioAssay (NCI).
